test name: Pharmacokinetics in plasma and PELF of healthy pigs after intramuscular injection
Type: in vivo
condition summary: pig, PELF, im, PELF, healthy pigs, single drug i.m.: ADP 5 mg/kg b.w., SMZ 25 mg/kg b.w., n = 6

compound: COc1cc(Cc2cnc(N)nc2N)cc(OC)c1N(C)C [ADP, Aditoprim]
Cmax [ng/mL]: 6880

====

test name: Pharmacokinetics in plasma and PELF of healthy pigs after intramuscular injection
Format: in vivo
condition summary: pig, plasma, im, plasma, healthy group, ADP/SMZ injection 5/25 mg/kg b.w. i.m., n = 6; read-out: MRT 24h
readout label: MRT last (h)

smiles: COc1cc(Cc2cnc(N)nc2N)cc(OC)c1N(C)C
readout label: MRT last
endpoint value: 7.76

====

test name: Pharmacokinetics in plasma and PELF of healthy pigs after intramuscular injection
Assay type: in vivo
condition summary: pig, plasma, im, plasma, healthy group, ADP/SMZ injection 5/25 mg/kg b.w. i.m., n = 6

compound: COc1cc(Cc2cnc(N)nc2N)cc(OC)c1N(C)C [ADP, Aditoprim]
Cmax [ng/mL]: 870

====

test name: Pharmacokinetics in plasma and PELF of healthy pigs after intramuscular injection
Type: in vivo
condition summary: pig, PELF, im, AUC 24h, PELF, healthy pigs, single drug i.m.: ADP 5 mg/kg b.w., SMZ 25 mg/kg b.w., n = 6
readout label: AUC(0-t)

smiles: COc1cc(Cc2cnc(N)nc2N)cc(OC)c1N(C)C
endpoint value: 44800 ng·h/mL

====

test name: Pharmacokinetics in plasma and PELF of healthy pigs after intramuscular injection
Type: in vivo
condition summary: pig, plasma, im, plasma, healthy pigs, single drug i.m.: ADP 5 mg/kg b.w., SMZ 25 mg/kg b.w., n = 6; read-out: MRT 24h

smiles: COc1cc(Cc2cnc(N)nc2N)cc(OC)c1N(C)C
MRT last: 7.63 h

====

test name: Pharmacokinetics in plasma and PELF of pigs infected with G. parasuis H78 after intramuscular injection
Assay type: in vivo
condition summary: pig, PELF, im
readout label: Tmax (h)

smiles: COc1cc(Cc2cnc(N)nc2N)cc(OC)c1N(C)C
readout label: Tmax
units symbol: h
endpoint value: 1.96
